Assay: Unbound plasma concentration in po dosed LPS-induced Lewis rat model at ED80 concentration measured after 5.5 hrs of initial dose by LC-MS/MS analysis
Assay type: ADME, organism-based
Conditions: in vivo
READOUT TYPE: Cp(f) (nM)
Lab book: enter the figure in nM, no units written.

# get_value(readout='Cp(f)', item= `Cc1ccc(-c2ccc3c(ccc4sc5c(c43)NC[C@@H](C)NC5=O)n2)cn1` )
340

* * *

Assay: Tmax in Sprague-Dawley rat measured upto 24 hrs by […] analysis
Type: ADME
Details: in vivo
READOUT TYPE: Tmax (min)
Report as a plain number; the unit min is understood.

Please give the measured Tmax for this compound: `Cc1ccc(-c2ccc3c(ccc4sc5c(c43)NC[C@@H](C)NC5=O)n2)cn1`
10.2
